Collected TGI values appear next to each entry.
Tested on: SF-539 CNS
Experiment: NCI tumour cell line growth inhibition, 48 h
Enter your answer as a number in nM; do not include the unit.

# compound structure string, TGI / nM
rows = [
    ("CC(=O)O[C@H](C[C@H](C(C)C)N(C)C(=O)[C@@H](NC(=O)[C@H]1CCCCN1C)C(C)C)c1cccc(C(=O)N[C@@H](Cc2ccccc2)C[C@H](C)C(=O)O)n1", 62.6),
]

API: the following record is the query input.
Req: Param readout= TGI; system= SF-539 CNS; entry= NCCOc1ncccc1/C=C1\c2ccccc2-c2ccc([N+](=O)[O-])cc21 ; returns value.
Resp: 362

* * *

Tested on: MDA-MB-231 breast
Experiment: NCI tumour cell line growth inhibition, 48 h
Where a SMILES comes first, the peptide text is derived from it. The star is where a group is joined. OSu = O=C1CCC(=O)N1O*
measured property: TGI

The following compounds have reported results that may help.
# compound, TGI
data = [
    ("CCN(CC)c1ccc(/C=N/NC(=O)CSc2nc3ccccc3c(=O)n2Cc2ccc(S(N)(=O)=O)cc2)c(O)c1", "> 100 µM"),
    ("COc1cc(Nc2ncnc(Nc3ccc4c(n3)NC(=O)C(C)(C)O4)n2)cc(OC)c1OC", "> 100 µM"),
    ("CN(C)CCCCCNc1c2ccccc2nc2cccc([N+](=O)[O-])c12", "0.00202 µM"),
    ("C=C(C)C(=O)OC1C[C@H](COC(C)=O)C2CC=C(CO)C2C2OC(=O)C(=C)[C@H]12 (some centres not stated)", "> 100 µM"),
    ("Cc1ccc(S(=O)(=O)NC(=O)NC(CCC(N)=O)C(=O)O)cc1 (configuration not stated)", "> 100 µM"),
]

Req: Record request: TGI value, item CCN(CC)c1nc(NC2CCCCC2)c2nc(N(CC)CC)nc(NC3CCCCC3)c2n1
Resp: > 100 µM

Req: What value of TGI has been recorded for this entry: Cc1c(C)c2c(c(C)c1OCC(=O)O)CC[C@@](C)(CCC[C@@H](C)CCC[C@@H](C)CCCC(C)C)O2
Resp: 218 µM

Req: Which TGI value belongs to [N-]=[N+]=Nc1ccc2c(c1)Sc1ccccc1N2CCCCN1CCN(C(=O)CCNC(=O)Cc2ccc(C(=O)c3ccccc3)cc2)CC1 ?
Resp: 16.9 µM

Req: Returns the measured TGI for the input compound. Input: NCCCCC(NC(=O)C(N)Cc1ccc(O)cc1)C(=O)NC(Cc1ccc(O)cc1)C(=O)NC(CCCCN)C(=O)ON1C(=O)CCC1=O (configuration not stated) (H-YKYK-OSu; configuration not given here)
Resp: > 100 µM

Req: Which TGI is listed for O=C(C1OC1c1cccc([N+](=O)[O-])c1)C12CC3CC(CC(C3)C1)C2 (configuration not stated) ?
Resp: 17.5 µM

Req: Consider the compound COC(=O)[C@H](Cc1c[nH]c2ccccc12)NC(=O)c1ccccc1I and give its measured TGI.
Resp: > 100 µM

Req: # TGI lookup, item C=CCCC(=O)C(=[N+]=[N-])C(=O)CCC(=O)c1ccccc1
Resp: > 10 µM

* * *

Test system: HL-60(TB) leukemia
Assay: NCI tumour cell line growth inhibition, 48 h
Is TGI at least 10 µM? Then true. If not, false.

Examples from the recorded data:
# molecule, test target, class label
measured = [
    ("CCCCCCCCCCOC(=O)c1cc[n+](C)cc1", "HL-60(TB) leukemia", "true"),
    ("Cc1cn2c(/C=N/N=C(N)N)c(-c3ccncc3)nc2s1", "HL-60(TB) leukemia", "true"),
    ("N#Cc1c(-c2ccc([N+](=O)[O-])cc2)cc(-c2ccc(Nc3ccnc4cc(Cl)ccc34)cc2)nc1N", "HL-60(TB) leukemia", "true"),
    ("O=C(NC(=O)c1cn(CCN2CCN(C(=O)NCCCCCCNC(=O)N3CCN(CCn4cc(C(=O)NC(=O)OCc5ccccc5)c(=O)[nH]c4=O)CC3)CC2)c(=O)[nH]c1=O)OCc1ccccc1", "HL-60(TB) leukemia", "true"),
    ("COc1cccc2cc(C(=O)NC34CC5CC(CC(C5)C3)C4)c(=N)oc12", "HL-60(TB) leukemia", "true"),
    ("CC(C)=C[C@@H]1O[C@H](O)[C@@H]([C@H]2CC[C@@]3(C)[C@@H]4CC[C@H]5C(C)(C)C(=O)CC[C@@]56C[C@@]46CC[C@]23C)[C@@H]1O", "HL-60(TB) leukemia", "true"),
    ("CCN(CC)c1ccc(/C=N/NC(=O)CSc2nc3ccccc3c(=O)n2Cc2ccc(S(N)(=O)=O)cc2)c(O)c1", "HL-60(TB) leukemia", "false"),
    ("Cc1cc(N(CCC#N)CCC#N)ccc1/C(N=Nc1ccc([N+](=O)[O-])cc1)=N\\NC(=O)c1ccccc1", "HL-60(TB) leukemia", "true"),
]

Req: Exam item: decide whether the reported TGI for CC(=O)O[C@H]1C(=O)[C@@]2(C)[C@H]([C@H](OC(=O)c3ccccc3)[C@]3(O)C[C@H](OC(=O)[C@H](O)[C@@H](NC(=O)c4ccc(N(C)C)cc4)c4ccccc4)C(C)=C1C3(C)C)[C@]1(OC(C)=O)CO[C@@H]1C[C@@H]2O is at least 10 µM.
Resp: false

Req: Please indicate if the recorded TGI for COc1ccc2nc3cccc([N+](=O)[O-])c3c(NCCNCCN(C)C)c2c1 meets or exceeds 10 µM.
Resp: false

Req: Hello, I need to know if O=C(Nc1ccc2c(c1)OCCO2)C(=O)c1c[nH]c2ccccc12 has measured TGI not below 10 µM. Thanks!
Resp: true

Req: Decide: is the reported value of TGI for COc1cc(NC(C)CCCNC(C)C)c2ncccc2c1OC (stereo not drawn) equal to or greater than 10 µM?
Resp: true

Req: Would you say CCC(=O)Nc1ccc(NCC(=O)Nc2ccc(OC)cc2)cc1 shows TGI at minimum 10 µM?
Resp: true

Req: Does TGI meet or surpass 10 µM for COCOc1cc(OC)ccc1C/C(=N/O)C(=O)OC ?
Resp: true

Req: Hi, just wondering whether OC12CCC3(O)c4ccccc4C3C1c1ccccc12 (stereo not drawn) shows TGI of 10 µM or higher.
Resp: true

Req: Reported TGI at or above 10 µM? COC(=O)N/N=C(\C)C(CN(C)C)C(c1ccccc1)c1c(O)c2ccccc2oc1=O (stereo not drawn)
Resp: true

Req: Hi team, for O=C(c1ccco1)N(C(=S)N1CCN(c2ccccn2)CC1)c1ccccc1 , is the recorded TGI at or above 10 µM?
Resp: true

Req: Reported TGI at or above 10 µM? CC12CCC(CC1(Cl)Cl)C2 (stereo not drawn)
Resp: true

Req: Tell me whether TGI is at least 10 µM here: O=C(Nc1ccc2cc3ccccc3cc2c1)c1cc2c(cc1Cl)Sc1nccn1S2(=O)=O
Resp: true

Req: Reported TGI reaches at least 10 µM for COC(=O)CNC(=O)CCC(C)[C@H]1CCC2C3C(C[C@H](OC(C)=O)[C@@]21C)[C@@]1(C)CCC2(C[C@H]1C[C@H]3OC(C)=O)OOC1(CCCCC1)OO2 (stereo partly drawn) ?
Resp: false

Req: Item COc1ccc2[nH]c(C(=O)OCc3ccc4cccc(O)c4n3)cc2c1 with TGI of 10 µM or above?
Resp: false

Req: Decide: TGI of CCc1nc2cc(/C=C/C(=O)NO)ccc2c(=O)n1CCc1ccc(OC)cc1 >= 10 µM?
Resp: true

Req: I'd appreciate it if you could say whether Cc1cc(C)nc(NS(=O)(=O)c2ccc(NC(=O)c3cc([N+](=O)[O-])cc([N+](=O)[O-])c3)cc2)n1 has TGI at least equal to 10 µM.
Resp: true

Req: Check this molecule for TGI at or above 10 µM: C=CCn1c(=N)/c(=C(\N)O)s/c1=C1/SC(=S)N(c2ccc(C)cc2)C1=O
Resp: true

Req: Kindly determine if TGI recorded for COc1ccc(-c2nc(N)c(C#N)c3c2CCOc2c-3ccc3ccccc23)cc1 is above or exactly 10 µM.
Resp: true

Req: Has Cn1cc(C2=C(c3ccccc3C(F)(F)F)C(=O)NC2=O)c2ccccc21 a recorded TGI greater than or equal to 10 µM?
Resp: true

Req: Please indicate if the recorded TGI for NCCNC(=O)CN(CC(=O)O)C1CCCCC1N(CC(=O)O)CC(=O)O (stereo not drawn) meets or exceeds 10 µM.
Resp: true

Req: Determine whether this molecule has TGI no lower than 10 µM: COc1ccc(CCN2C(=O)CC34C=CC(CC3C2=O)O4)cc1OC (stereo not drawn)
Resp: true

Req: Decide: is the reported value of TGI for CC(=O)c1c(O)n(-c2ccc(C)cc2)c(=O)c2c(N)n[nH]c12 equal to or greater than 10 µM?
Resp: true

Req: I'd appreciate it if you could say whether CCOC(=O)C#Cc1c(C(=O)OCC)nnn1[C@@H]1O[C@H](CO)[C@H]2OC3(CCCCC3)O[C@H]21 has TGI at least equal to 10 µM.
Resp: false

Req: Decide: is the reported value of TGI for Oc1c(O)c(Cl)c(Cl)c(Cl)c1Cl equal to or greater than 10 µM?
Resp: false

Req: Could you please find out whether COC(=O)[C@H](Cc1c[nH]c2ccccc12)NC(=O)c1ccccc1I has TGI that meets 10 µM or exceeds it?
Resp: true
